Assay: Metabolic stability evaluation in human liver microsomes
Type: in vitro ADME
Conditions: human liver microsome, in words
quantity: half-life compared to the non-deuterated compound

# compound, measurement
measured = [
    ("[2H]c1ccc(C2=CCC3C4CCC5=CC(=O)CC[C@]5(C)C4CC[C@]23C)cn1 (stereo partly shown) [Example 12]", "prolonged"),
    ("[2H]C1=C(c2cccnc2)[C@@]2(C)CCC3C(CC=C4C[C@@H](O)CC[C@@]43C)C2C1 (stereo partly shown) [Example 8]", "prolonged"),
    ("[2H]c1ccc(C2=CCC3C4CC=C5C[C@@H](O)CC[C@]5(C)C4CC[C@]23C)cn1 (stereo partly shown) [Example 1]", "prolonged"),
    ("[2H]c1cncc(C2=CCC3C4CC=C5C[C@@H](O)CC[C@]5(C)C4CC[C@]23C)c1 (stereo partly shown) [Example 2]", "prolonged"),
]

###

Biological target: Human CYP17 (Homo sapiens)
Experiment: CYP17 lyase assay
Format: biochemical
Parameters: made in house; host or cells: HEK293 cells (microsomes)
pIC50: −log10 of the molar value.
quantity: pIC50

# compound, quantity, measurement
records = [
    ("[2H]C1=C(c2cccnc2)[C@@]2(C)CCC3C(CC=C4C[C@@H](O)CC[C@@]43C)C2C1 (stereo partly shown) [Example 8]", "pIC50", "> 8.00"),
]

###

Assay: Pharmacokinetic evaluation in rats
Type: in vivo
Details: male, Sprague-Dawley, plasma; rat, IV
quantity: Tmax (h)

# compound, measurement
records = [
    ("[2H]c1ccc(C2=CCC3C4CC=C5C[C@@H](OC(C)=O)CC[C@]5(C)C4CC[C@]23C)cn1 (stereo partly drawn)", 3),
    ("CC(=O)O[C@H]1CC[C@@]2(C)C(=CC[C@@H]3[C@@H]2CC[C@]2(C)C(c4cccnc4)=CC[C@@H]32)C1 [Abiraterone acetate, reference compound]", 2),
    ("[2H]C1=C(c2cccnc2)[C@@]2(C)CCC3C(CC=C4C[C@@H](OC(=O)C([2H])([2H])[2H])CC[C@@]43C)C2C1 (stereo partly drawn)", 17.3),
]

###

Test: Pharmacokinetic evaluation in rats
Format: in vivo
Conditions: male, Sprague-Dawley, plasma, 5 mg/kg; rat, PO
Method: 8 male Sprague-Dawley rats (7-8 weeks old, and weighing approximately 210 g) were divided into two groups with 4 rats in each group, a single oral dose of 5 mg/kg given to the two groups were (a) control group: (3β)-17-(3)-pyridyl)androst-5,16-dienol and (b) test group: Examples 1-13, and pharmacokinetic differences between the two groups were compared. The rats were raised on standard food and water. Fasting was started 16 hours before the test. […]

# compound, Cmax, ng/mL
data = [
    ("CC(=O)O[C@H]1CC[C@@]2(C)C(=CC[C@@H]3[C@@H]2CC[C@]2(C)C(c4cccnc4)=CC[C@@H]32)C1 [Abiraterone acetate, reference compound]", 506),
    ("[2H]C1=C(c2cccnc2)[C@@]2(C)CCC3C(CC=C4C[C@@H](OC(=O)C([2H])([2H])[2H])CC[C@@]43C)C2C1 (stereo partly drawn) [Example 9]", 549),
    ("[2H]c1ccc(C2=CCC3C4CC=C5C[C@@H](OC(C)=O)CC[C@]5(C)C4CC[C@]23C)cn1 (stereo partly drawn) [Example 5]", 813),
]

###

Target: Human CYP17 (Homo sapiens)
Sequence (P05093 1-508): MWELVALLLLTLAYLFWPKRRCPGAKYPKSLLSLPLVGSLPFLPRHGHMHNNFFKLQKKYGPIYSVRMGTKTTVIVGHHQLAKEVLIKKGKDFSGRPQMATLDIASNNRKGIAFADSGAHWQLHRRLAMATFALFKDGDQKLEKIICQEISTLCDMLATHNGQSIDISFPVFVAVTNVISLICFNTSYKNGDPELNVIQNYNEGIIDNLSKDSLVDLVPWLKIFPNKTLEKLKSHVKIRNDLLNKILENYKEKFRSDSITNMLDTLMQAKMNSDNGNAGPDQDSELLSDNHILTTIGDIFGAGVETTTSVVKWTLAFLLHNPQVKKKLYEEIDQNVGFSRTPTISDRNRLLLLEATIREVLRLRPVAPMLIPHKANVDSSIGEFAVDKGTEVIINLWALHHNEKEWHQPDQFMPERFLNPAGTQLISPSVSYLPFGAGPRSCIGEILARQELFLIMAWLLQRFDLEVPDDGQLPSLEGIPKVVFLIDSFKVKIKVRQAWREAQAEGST
Experiment: CYP17 hydroxylase assay
Assay type: biochemical
Design: made in house; host or cells: E. coli (membrane preparation)
Protocol: E. coli was transformed to express active human CYP17, and a membrane prepared from the transformed E. coli was used as a source of the enzyme. […] The reaction mixture was incubated at 37° C. for 120 minutes and 200 μL of 0.02 N HCl in acetonitrile was added to stop the reaction. The sample was then spun at […] and 200 μL of the supernatant was transferred to a clean tube for determination. The reaction product 17-alpha pregnenolone was measured by LC/MS.
pIC50: −log10 of the molar value.
quantity: pIC50

# compound, quantity, measurement
rows = [
    ("[2H]C1=C(c2cccnc2)[C@@]2(C)CCC3C(CC=C4C[C@@H](O)CC[C@@]43C)C2C1 (stereo partly shown)", "pIC50", "> 7.70"),
]

###

Assay: Pharmacokinetic evaluation in rats
Type: in vivo
Conditions: male, Sprague-Dawley, plasma; rat, IV

# molecule, AUC(0-inf), ng·h/mL
measured = [
    ("[2H]c1ccc(C2=CCC3C4CC=C5C[C@@H](OC(C)=O)CC[C@]5(C)C4CC[C@]23C)cn1 (some centres unmarked)", 274),
    ("CC(=O)O[C@H]1CC[C@@]2(C)C(=CC[C@@H]3[C@@H]2CC[C@]2(C)C(c4cccnc4)=CC[C@@H]32)C1 [Abiraterone acetate, reference compound]", 192),
]

###

Experiment: Metabolic stability evaluation in human liver microsomes
Type: in vitro ADME
Details: human liver microsomes, pH 7.4; human liver microsome, 1 μM compound, 0.5 mg/mL protein
Reported microsomal CLint at 1 μM values for the following compounds.

# compound, microsomal CLint at 1 μM
measured = [
    ("[2H]c1ccc(C2=CCC3C4CCC5=CC(=O)CC[C@]5(C)C4CC[C@]23C)cn1 (some centres unmarked)", "408 µL/min/mg"),
    ("C[C@]12CC[C@H](O)CC1=CC[C@@H]1[C@@H]2CC[C@]2(C)C(c3cccnc3)=CC[C@@H]12 [Abiraterone, (3β)-17-(3-pyridinyl)androst-5,16-dienol, reference compound]", "34.7 µL/min/mg"),
    ("[2H]c1ccc(C2=CCC3C4CC=C5C[C@@H](O)CC[C@]5(C)C4CC[C@]23C)cn1 (some centres unmarked)", "< 9.6 µL/min/mg"),
    ("[2H]C1=C(c2cccnc2)[C@@]2(C)CCC3C(CC=C4C[C@@H](O)CC[C@@]43C)C2C1 (some centres unmarked)", "24.3 µL/min/mg"),
    ("[2H]c1cncc(C2=CCC3C4CC=C5C[C@@H](O)CC[C@]5(C)C4CC[C@]23C)c1 (some centres unmarked)", "19.5 µL/min/mg"),
]

###

Target: Human CYP17 (Homo sapiens)
Test: CYP17 hydroxylase assay
Format: biochemical
Design: made in house; host or cells: E. coli (membrane preparation)
Settings: hCYP17 E. coli membrane, 25 μM pregnenolone, 37° C. 120 minutes; read-out: CYP17 hydroxylase IC50

# compound, assayed.system, IC50
data = [
    ("[2H]c1cncc(C2=CCC3C4CCC5=CC(=O)CC[C@]5(C)C4CC[C@]23C)c1 (some centres unmarked)", "Human CYP17 (Homo sapiens)", "< 0.02 µM"),
    ("[2H]C1=C(c2cccnc2)[C@@]2(C)CCC3C(CCC4=CC(=O)CC[C@@]43C)C2C1 (some centres unmarked)", "Human CYP17 (Homo sapiens)", "< 0.02 µM"),
    ("[2H]c1cncc(C2=CCC3C4CC=C5C[C@@H](O)CC[C@]5(C)C4CC[C@]23C)c1 (some centres unmarked)", "Human CYP17 (Homo sapiens)", "< 0.02 µM"),
    ("[2H]c1ccc(C2=CCC3C4CC=C5C[C@@H](O)CC[C@]5(C)C4CC[C@]23C)cn1 (some centres unmarked)", "Human CYP17 (Homo sapiens)", "< 0.02 µM"),
    ("[2H]c1ccc(C2=CCC3C4CCC5=CC(=O)CC[C@]5(C)C4CC[C@]23C)cn1 (some centres unmarked)", "Human CYP17 (Homo sapiens)", "< 0.02 µM"),
]

###

Assay: Pharmacokinetic evaluation in rats
Format: in vivo
Conditions: male, Sprague-Dawley, plasma; rat, IV
Reported AUC(0-t) values for the following molecules.

# molecule, unit.name, AUC(0-t)
measured = [
    ("CC(=O)O[C@H]1CC[C@@]2(C)C(=CC[C@@H]3[C@@H]2CC[C@]2(C)C(c4cccnc4)=CC[C@@H]32)C1 [Abiraterone acetate, reference compound]", "ng·h/mL", 110),
    ("[2H]c1ccc(C2=CCC3C4CC=C5C[C@@H](OC(C)=O)CC[C@]5(C)C4CC[C@]23C)cn1 (some centres unmarked)", "ng·h/mL", 224),
]
